Test system: SK-OV-3 (ovary)
test.details: Cell growth inhibition assay (SRB), SK-OV-3
Assay type: cell-based
conditions.used: Homo sapiens; SRB method, 96 hours incubation, SK-OV-3 (ovary); read-out: IC50, SK-OV-3
Each record here notes measured IC50.
Please report the result as a number followed by the unit.

These recorded examples may help you get a feel for the data.
COc1ccc2nc(NC(=O)N3CCN(c4cc(C)cc(C)c4)CC3)c(OC)nc2c1 [Compound 157]	500 nM
COc1nc2cc(C)ccc2nc1NC(=O)N1CCN(c2cc(C)cc(C)c2)CC1 [Compound 136]	100 nM
COc1nc2cc(F)ccc2nc1NC(=O)N1CCN(c2cc(C)cc(C)c2)CC1 [Compound 94]	500 nM

Now take the following molecule into account.
According to the records, this molecule COc1nc2cc(Cl)ccc2nc1NC(=O)N1CCN(c2cc(C)cc(C)c2)CC1 [Compound 115] displays IC50 of 500 nM
